FYI, the data here is from paper PMC4254850.

- Protocol Text: Plasma pharmacokinetics, LC/MS/MS, non-compartmental analysis
- Assay type: in vivo, human
- Protocol Conditions: human, plasma, po, 4 mg, Cmax, 4 mg (QD), repeat dose; mean, n=3
Endpoint Name: Cmax (ng/mL)

Structure Smiles String | Endpoint Name | Number
CS(=O)(=O)N1CCc2c(-c3cnc(N)nc3)nc(N3CCOCC3)nc21 | Cmax | 22.5

* * *

- Protocol Text: Plasma pharmacokinetics, LC/MS/MS, non-compartmental analysis
- Format: in vivo, human
- Protocol Conditions: human, plasma, po, 4 mg, AUC0-24h, 4 mg (QD), repeat dose; mean, n=3

Structure Smiles String | AUC(0-t) / ng·h/mL
CS(=O)(=O)N1CCc2c(-c3cnc(N)nc3)nc(N3CCOCC3)nc21 | 167
